Assay: self-splicing fitness, log relative to wild type (ln ratio); higher = more splicing; Tetrahymena group I intron in knt gene, E. coli kanamycin selection, DiMSum; sequences stand for … in CUCUCU…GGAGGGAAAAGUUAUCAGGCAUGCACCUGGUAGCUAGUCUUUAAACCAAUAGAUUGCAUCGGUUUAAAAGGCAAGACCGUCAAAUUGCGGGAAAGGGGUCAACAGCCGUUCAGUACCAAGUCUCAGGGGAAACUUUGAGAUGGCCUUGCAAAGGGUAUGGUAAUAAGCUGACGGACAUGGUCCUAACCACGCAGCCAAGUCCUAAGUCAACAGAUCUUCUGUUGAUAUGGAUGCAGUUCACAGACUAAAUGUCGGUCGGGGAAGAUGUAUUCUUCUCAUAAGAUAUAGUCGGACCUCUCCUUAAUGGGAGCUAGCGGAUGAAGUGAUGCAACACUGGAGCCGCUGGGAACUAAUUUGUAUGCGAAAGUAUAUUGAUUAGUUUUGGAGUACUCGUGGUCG;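 also: selection with 25 µg/mL kanamycin versus none on LB agar overnight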
Conditions: 37 °C
Readout Name: self-splicing fitness (ln)
The answer should be written as a number, with no unit following it.

Solved entries (count: 4):
>>> experimental_value("ACAAAGCAAUAUUACGUUCC")
-1.73
>>> experimental_value("UAAAAGCAAUAUUACGUUCC")
-2.57
>>> experimental_value("CGGGAGCAAUAUUACGGGUG")
-2.07
>>> experimental_value("GUAUAGCAAUAUUACGAUCG")
-0.878

I am curious: what self-splicing fitness (ln) value has been reported for AGCAAGCAAUAUUACGUACG ?
-0.695

Queued: AUCUAGCAAUAUUACGCUGC
-1.66

Queued: AGGAAGCAAUAUUACGGCUC
-0.713

Queued: GUUGAGCAAUAUUACGGGGG
-2.34

Queued: GCAGAGCAAUAUUACGCGUU
-2.09

Queued: GAAAAGCAAUAUUACGGGGU
-2.32

Queued: ACAGAGCAAUAUUACGAUGA
-1.15

Queued: GGAGAGCAAUAUUACGACGG
-2.17

Queued: CAUCAGCAAUAUUACGAGGU
-2.86

Queued: CGUGAGCAAUAUUACGCUAU
-2.49

Queued: UGGGAGCAAUAUUACGAGCA
-0.71

Queued: AGCGAGCAAUAUUACGUUCA
-0.891

====

Experiment: self-splicing fitness, log relative to wild type (ln ratio); higher = more splicing; Tetrahymena group I intron in knt gene, E. coli kanamycin selection, DiMSum; sequences stand for … in CUCUCU…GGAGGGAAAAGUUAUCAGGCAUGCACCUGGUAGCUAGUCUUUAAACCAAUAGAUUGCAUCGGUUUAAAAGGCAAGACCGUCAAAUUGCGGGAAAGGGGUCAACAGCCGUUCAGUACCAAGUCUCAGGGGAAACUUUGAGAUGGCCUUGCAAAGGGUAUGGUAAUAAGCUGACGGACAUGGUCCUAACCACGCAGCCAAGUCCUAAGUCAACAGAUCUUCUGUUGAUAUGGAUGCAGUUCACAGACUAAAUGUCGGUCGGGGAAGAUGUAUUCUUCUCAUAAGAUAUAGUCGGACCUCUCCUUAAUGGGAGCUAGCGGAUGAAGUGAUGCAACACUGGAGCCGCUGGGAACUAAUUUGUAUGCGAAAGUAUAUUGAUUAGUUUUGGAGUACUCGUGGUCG
Conditions: 30 °C
Readout Name: self-splicing fitness (ln)
The answer should be written as a number, with no unit following it.

>>> experimental_value("GAGUAGCAAUAUUACGAGGG")
-3.5
>>> experimental_value("AUCGAGCAAUAUUACGCAGU")
-2.07

I am curious: what self-splicing fitness (ln) value has been reported for CCAGAGCAAUAUUACGUCCU ?
-4.05

Queued: AGACAGCAAUAUUACGUUUU
-3

Queued: GGCGAGCAAUAUUACGCGUA
-1.09

Queued: GGCAAGCAAUAUUACGCCUC
-2.03

Queued: AUCGAGCAAUAUUACGCCCC
-2.24

====

Test: self-splicing fitness, log relative to wild type (ln ratio); higher = more splicing; Tetrahymena group I intron in knt gene, E. coli kanamycin selection, DiMSum; sequences stand for … in CUCUCU…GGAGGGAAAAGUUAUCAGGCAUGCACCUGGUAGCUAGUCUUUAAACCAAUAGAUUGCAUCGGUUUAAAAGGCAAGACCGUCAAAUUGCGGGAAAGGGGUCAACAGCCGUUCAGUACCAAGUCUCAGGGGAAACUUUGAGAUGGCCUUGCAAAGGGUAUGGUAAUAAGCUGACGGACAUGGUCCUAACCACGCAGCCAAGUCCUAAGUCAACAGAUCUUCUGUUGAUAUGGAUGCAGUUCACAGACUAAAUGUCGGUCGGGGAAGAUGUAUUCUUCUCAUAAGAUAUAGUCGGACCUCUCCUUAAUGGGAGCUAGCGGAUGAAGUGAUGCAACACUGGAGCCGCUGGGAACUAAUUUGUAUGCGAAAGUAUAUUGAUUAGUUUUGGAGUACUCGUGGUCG
Conditions: 30 °C
Assign Yes whenever self-splicing fitness (ln) does not fall below -2; assign No whenever it does.

>>> assigned_class("GGGAAGCAAUAUUACGCAUA")
"No"

Consider the additional sequence presented here.
State whether the measured self-splicing fitness (ln) reaches -2, counting equality as reaching it, for GUACAGCAAUAUUACGUCGG
No

====

Assay: self-splicing fitness, log relative to wild type (ln ratio); higher = more splicing; Tetrahymena group I intron in knt gene, E. coli kanamycin selection, DiMSum; sequences stand for … in CUCUCU…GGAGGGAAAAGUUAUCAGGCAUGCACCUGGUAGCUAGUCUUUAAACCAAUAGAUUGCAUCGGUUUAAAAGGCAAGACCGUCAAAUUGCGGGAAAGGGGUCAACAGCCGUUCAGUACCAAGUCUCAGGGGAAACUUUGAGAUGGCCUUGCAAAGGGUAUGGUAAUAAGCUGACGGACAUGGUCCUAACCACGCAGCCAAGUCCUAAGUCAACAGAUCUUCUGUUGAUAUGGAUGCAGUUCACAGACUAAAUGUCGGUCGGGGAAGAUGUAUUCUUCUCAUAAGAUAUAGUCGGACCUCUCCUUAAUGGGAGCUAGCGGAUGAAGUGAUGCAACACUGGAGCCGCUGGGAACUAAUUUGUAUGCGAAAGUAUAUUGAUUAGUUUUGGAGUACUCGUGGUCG
Conditions: 37 °C
Recorded self-splicing fitness (ln) determines the label; the label ranges are low: < -2; middle: ≥ -2 and < -0.8; high: ≥ -0.8

For orientation, consider the following solved cases.
>>> assigned_class("CACGAGCAAUAUUACGCAUG")
"low"
>>> assigned_class("GUGGAGCAAUAUUACGCGAA")
"middle"
>>> assigned_class("CCUCAGCAAUAUUACGCCUG")
"middle"
>>> assigned_class("GAACAGCAAUAUUACGCUCG")
"high"
>>> assigned_class("UGGGAGCAAUAUUACGUAGU")
"middle"

Quick check: band for GCGAAGCAAUAUUACGGUGC
low

Queued: CCCCAGCAAUAUUACGCAGC
low

Queued: AAGCAGCAAUAUUACGAAAC
middle

Queued: UGUAAGCAAUAUUACGCAUA
middle

====

Assay: self-splicing fitness, log relative to wild type (ln ratio); higher = more splicing; Tetrahymena group I intron in knt gene, E. coli kanamycin selection, DiMSum; sequences stand for … in CUCUCU…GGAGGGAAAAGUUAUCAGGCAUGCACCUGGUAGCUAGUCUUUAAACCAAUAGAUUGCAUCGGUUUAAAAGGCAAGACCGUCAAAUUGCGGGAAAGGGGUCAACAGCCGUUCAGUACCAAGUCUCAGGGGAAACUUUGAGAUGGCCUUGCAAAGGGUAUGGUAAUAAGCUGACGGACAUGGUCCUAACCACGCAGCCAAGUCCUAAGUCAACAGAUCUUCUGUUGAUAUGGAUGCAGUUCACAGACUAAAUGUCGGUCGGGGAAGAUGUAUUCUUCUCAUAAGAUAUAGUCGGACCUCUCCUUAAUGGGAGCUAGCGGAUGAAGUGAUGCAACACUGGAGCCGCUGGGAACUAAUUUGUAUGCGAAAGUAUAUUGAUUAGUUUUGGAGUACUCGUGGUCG
Settings: 37 °C
Assign TRUE whenever self-splicing fitness (ln) does not fall below -0.5; assign FALSE whenever it does.

State whether the measured self-splicing fitness (ln) reaches -0.5, counting equality as reaching it, for AUAAAGCAAUAUUACGAGCG
TRUE

Queued: GAAUAGCAAUAUUACGCGAU
FALSE

Queued: GGCCAGCAAUAUUACGAUCC
TRUE

====

Test: self-splicing fitness, log relative to wild type (ln ratio); higher = more splicing; Tetrahymena group I intron in knt gene, E. coli kanamycin selection, DiMSum; sequences stand for … in CUCUCU…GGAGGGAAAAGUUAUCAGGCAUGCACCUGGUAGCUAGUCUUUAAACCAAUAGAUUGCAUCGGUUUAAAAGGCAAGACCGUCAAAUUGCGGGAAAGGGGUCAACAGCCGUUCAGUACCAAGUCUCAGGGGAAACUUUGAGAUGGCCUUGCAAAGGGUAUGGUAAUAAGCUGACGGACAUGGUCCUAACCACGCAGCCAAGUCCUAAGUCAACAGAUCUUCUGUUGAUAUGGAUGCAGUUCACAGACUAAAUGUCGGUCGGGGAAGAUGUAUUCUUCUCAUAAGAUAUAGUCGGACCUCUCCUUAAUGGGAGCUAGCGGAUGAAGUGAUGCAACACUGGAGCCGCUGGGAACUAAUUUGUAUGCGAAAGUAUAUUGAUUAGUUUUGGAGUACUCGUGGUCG
Details: 30 °C
Recorded self-splicing fitness (ln) determines the label; the label ranges are group A (below -3), group B (-3 to below -1), group C (-1 or more)

Quick check: band for UAGUAGCAAUAUUACGUACG
group B
